# System: RXF 393
# test-summary: NCI tumour cell line growth inhibition, 48 h
Active and inactive are the calls of the source. Cut-off read from the data, not from the text of the source: active = GI50 up to about 1.1 µM and inactive = higher.
observation-type: GI50

Here's what some known entries look like.
molecule	GI50
Cc1cc(S(=O)(=O)Nc2nc3ccccc3n2-c2ccccc2)c(S)cc1Cl	> 100 µM (inactive)
COC(=O)/C(=C/CC(N=C(c1ccccc1)c1ccccc1)C(=O)OC)N=C(c1ccccc1)c1ccccc1 (stereo unspecified)	26.1 µM (inactive)
COC1CC(n2ccc(=O)[nH]c2=O)OC1CO (stereo unspecified)	> 100 µM (inactive)
C=CC1[C@H]2COC(C)(C)O[C@@H]2CC(=O)C1(C)C (stereo partly specified)	94.8 µM (inactive)
Cc1ccc(S(=O)(=O)N/N=C2\CC3C4CCC3C2C4)cc1 (stereo unspecified)	> 100 µM (inactive)

Which GI50 value is on record for OC12CC/C(=N/OCc3ccccc3)CC1c1ccccc12 (stereo unspecified) ?
> 100 µM (inactive)
